tested on: NKL (IL-2 2.5 ng/mL); assay: percent inhibition of viability; higher = more inhibition; conditions: 72 h; 1000 nM;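 also: normalised to DMSO-only wells as negative and benzethonium chloride as positive control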

| compound | percent inhibition of viability [%] |
| --- | --- |
| CN(C)C1CCN(C(=O)c2ccc(NC(=O)Nc3ccc(-c4nc(N5CCOCC5)nc(N5CCOCC5)n4)cc3)cc2)CC1 [Gedatolisib] (max concentration tested 1000 nM) | 62 |
| NC(=O)N1CCC(CC(=O)N2CCC([C@H]3c4ncc(Br)cc4CCc4cc(Cl)cc(Br)c43)CC2)CC1 [Lonafarnib] (max concentration tested 10000 nM) | 19.2 |
| CC(C)C[C@H](NC(=O)[C@H](Cc1ccccc1)NC(=O)c1cnccn1)B(O)O [Bortezomib] (max concentration tested 1000 nM) | 98.5 |
